Tested on: human lung carcinoma (A-549) cells
Test: Anticancer screening, SRB assay, A-549
Assay type: cell-based
Details: A 549, 48 hours incubation, concentration not given
property: % inhibition for cancer cells A 549 (%)

- molecule: "CC(C)Cc1cc(C(=O)NCC2C3CN(CCC(C)(C)C)CC23)nn1-c1ccccc1 (stereo not drawn) [Compound 7]"
  number: 93.14
- molecule: "Cc1ccc(NC(=O)c2ccc(CN3CCN(C)CC3)cc2)cc1Nc1nccc(-c2cccnc2)n1 [Gleevec, reference compound]"
  number: 94.17
- molecule: "CC(C)Cc1cc(CNC(=O)C2C3CN(C(=O)Cc4ccccc4)CC32)nn1-c1ccccc1 (stereo not drawn) [Compound 5]"
  number: 94.61
- molecule: "CC(C)Cc1cc(CNC(=O)C2C3CN(CCC(C)(C)C)CC32)nn1-c1ccccc1 (stereo not drawn) [Compound 1]"
  number: 94.52
- molecule: "CC(C)Cc1cc(CNC(=O)C2C3CN(CCc4ccc(C(F)(F)F)cc4)CC32)nn1-c1ccccc1 (stereo not drawn) [Compound 3]"
  number: 75.64
- molecule: "CC(C)Cc1cc(CNC(=O)C2C3CN(C(=O)c4ccccc4)CC32)nn1-c1ccccc1 (stereo not drawn) [Compound 4]"
  number: 94.52

###

System: human fibroblastoma (HT-1080) cells
Experiment: Anticancer screening, SRB assay, HT-1080
Assay type: cell-based
Details: HT1080, 48 hours incubation, concentration not given
property: % inhibition for cancer cells HT1080

- compound: "CC(C)Cc1cc(C(=O)NCC2C3CN(CCC(C)(C)C)CC23)nn1-c1ccccc1 (stereo not shown) [Compound 7]"
  result: "88.79%"
- compound: "CC(C)Cc1cc(CNC(=O)C2C3CN(Cc4ccccc4)CC32)nn1-c1ccccc1 (stereo not shown) [Compound 2]"
  result: "87.79%"
- compound: "C#Cc1cccc(Nc2ncnc3cc(OCCOC)c(OCCOC)cc23)c1 [Tarceva, reference compound]"
  result: "83.07%"
- compound: "CC(C)Cc1cc(CNC(=O)C2C3CN(CCc4ccc(C(F)(F)F)cc4)CC32)nn1-c1ccccc1 (stereo not shown) [Compound 3]"
  result: "87.64%"

###

System: human fibroblastoma (HT-1080) cells
Assay: Anticancer screening, SRB assay, HT-1080
Type: cell-based
Conditions: HT1080, 48 hours incubation, concentration not given
property: % inhibition for cancer cells HT1080

- compound: "CC(C)Cc1cc(CNC(=O)C2C3CN(C(=O)Cc4ccccc4)CC32)nn1-c1ccccc1 (stereo not shown)"
  result: "67.10%"
- compound: "CC(C)Cc1cc(CNC(=O)C2C3CN(C(=O)c4ccccc4)CC32)nn1-c1ccccc1 (stereo not shown)"
  result: "75.39%"
- compound: "Cc1ccc(NC(=O)c2ccc(CN3CCN(C)CC3)cc2)cc1Nc1nccc(-c2cccnc2)n1 [Gleevec, reference compound]"
  result: "92.04%"
- compound: "CC(C)Cc1cc(CNC(=O)C2C3CN(CCC(C)(C)C)CC32)nn1-c1ccccc1 (stereo not shown)"
  result: "62.86%"

###

Tested on: human prostate carcinoma (LNCaP) cells
Test: Anticancer screening, SRB assay, LNCaP
Format: cell-based
Settings: 48 hours incubation, concentration not given
Consider the following molecules and their measured % inhibition for cancer cells LNCaP readings.

- molecule: "CC(C)Cc1cc(CNC(=O)C2C3CN(C(=O)Cc4ccccc4)CC32)nn1-c1ccccc1 (centres unmarked) [Compound 5]"
  % inhibition for cancer cells LNCaP / %: 62.24
- molecule: "C#Cc1cccc(Nc2ncnc3cc(OCCOC)c(OCCOC)cc23)c1 [Tarceva, reference compound]"
  % inhibition for cancer cells LNCaP / %: 47.12
- molecule: "CC(C)Cc1cc(C(=O)NCC2C3CN(CCC(C)(C)C)CC23)nn1-c1ccccc1 (centres unmarked) [Compound 7]"
  % inhibition for cancer cells LNCaP / %: 49.98
- molecule: "CC(C)Cc1cc(CNC(=O)C2C3CN(C(=O)c4ccccc4)CC32)nn1-c1ccccc1 (centres unmarked) [Compound 4]"
  % inhibition for cancer cells LNCaP / %: 73.31
- molecule: "Cc1ccc(NC(=O)c2ccc(CN3CCN(C)CC3)cc2)cc1Nc1nccc(-c2cccnc2)n1 [Gleevec, reference compound]"
  % inhibition for cancer cells LNCaP / %: 82.56
- molecule: "CC(C)Cc1cc(CNC(=O)C2C3CN(CCC(C)(C)C)CC32)nn1-c1ccccc1 (centres unmarked) [Compound 1]"
  % inhibition for cancer cells LNCaP / %: 34.74
- molecule: "CC(C)Cc1cc(CNC(=O)C2C3CN(Cc4ccccc4)CC32)nn1-c1ccccc1 (centres unmarked) [Compound 2]"
  % inhibition for cancer cells LNCaP / %: 84.90
- molecule: "CC(C)Cc1cc(CNC(=O)C2C3CN(CCc4ccc(C(F)(F)F)cc4)CC32)nn1-c1ccccc1 (centres unmarked) [Compound 3]"
  % inhibition for cancer cells LNCaP / %: 92.29
